- Test system: HOP-92
- EXPERIMENTAL PROTOCOL: NCI tumour cell line growth inhibition, 48 h
Activity calls are given as the source filed them. No stated cut-off is given here; in the data, active = GI50 up to about 1.1 µM and inactive = higher.
Form entry, call: pick from TRUE = active, FALSE = inactive

Fill in: this test's call for NC(Cc1c[nH]c(I)n1)C(=O)O (stereo not given) is ___
FALSE

GET /call?item= C[C@@H](c1ccccc1)n1c(N)c(-c2ccccn2)c2ccc([N+](=O)[O-])cc2c1=O returns the recorded outcome of this test.
FALSE

In this assay, the call recorded for COc1cc(/C=C2/C[C@H]3[C@@H]4CCC5=CC(=O)CC[C@]5(C)[C@H]4CC[C@]3(C)NC2=O)cc(OC)c1OC was what?
FALSE

GET /call?item= CC1=NN(C(=O)CC(=O)Nc2ccc(Cl)cc2)C(=O)C1/N=N\c1ccc(S(=O)(=O)c2ccc(/N=N/C3C(=O)N(C(=O)CC(=O)Nc4ccc(Cl)cc4)N=C3C)cc2)cc1 (stereo not given) returns the recorded outcome of this test.
FALSE

Name the outcome recorded for c1ccc2c(c1)nc1n2CNCC1 in the assay.
FALSE

For CSC(=S)NNC(=O)c1ccncc1 , what call appears in the results of this test?
FALSE

Identify the outcome logged in this assay for the compound shown: CCN(C)c1nc(N(C)CC)c2nc(N(C)CC)nc(N(C)CC)c2n1
FALSE

Answer briefly: the call reported for CC1(C)SC2C(NC(=O)Cc3ccccc3)C(=O)N2C1C(=O)O (stereo not given) in this assay.
FALSE

Recorded test outcome, item COc1cc(CNC(=O)CCCCCCCC/C=C/Br)ccc1O
FALSE

Call for entry COc1ccc(/C=C\c2cc(OC)c(OC)c(OC)c2)c(O)c1O :
TRUE

###

Give measured GI50 for each item. Keep answers brief.
- Tested on: DMS-114
- EXPERIMENTAL PROTOCOL: NCI tumour cell line growth inhibition, 48 h
Activity calls are given as the source filed them. Rule as the data show it: active = GI50 up to about 1.1 µM and inactive = higher.

Param readout = GI50; param system = DMS-114; param query = COc1ccc(C(c2ccccc2)(c2ccc(OC)cc2)N2C(=O)NC3C(CCCCC(=O)NCCCCCCOP(OCCC#N)N(C(C)C)C(C)C)SCC32)cc1 (stereo not drawn) ; response: value
17.7 µM (inactive)

# query: GI50 | item CC1=C2N3C[C@@H](n4c(=O)n(C)c(=O)n43)C23CCC1n1c(=O)n(C)c(=O)n13 | system: DMS-114
30.8 µM (inactive)

Lab note: need GI50 with DMS-114 for entry COc1cccc(NC(=O)C(C)(C)C)c1C=O , please look it up.
34.6 µM (inactive)

Could you share what GI50 was measured for COc1ccc2c(c1OC)C(=O)c1cnccc1C2=O , tested on DMS-114?
> 100 µM (inactive)

Record lookup: for DMS-114, what GI50 belongs to CN(C(=O)c1ccc(Cl)cc1)C(=S)N1CCN(c2ccccn2)CC1 ?
69.8 µM (inactive)

Reported GI50 for DMS-114, given O=C(c1ccccc1)C(c1ccccc1)C1(O)C(=O)Nc2ccc([N+](=O)[O-])cc21 (stereo not drawn) ?
19.8 µM (inactive)

State its GI50 on DMS-114: C[n+]1c2n(c3nc(N)[nH]c(=O)c31)C1OC(C2)C(O)C1O (stereo not drawn)
> 100 µM (inactive)

Hi! What's the reported GI50 for Fc1cccc(Cl)c1C1SCc2nc3ccccc3n21 (stereo not drawn) on DMS-114?
20.7 µM (inactive)

###

- Tested on: T47D
- EXPERIMENTAL PROTOCOL: NCI tumour cell line growth inhibition, 48 h
Counter-ions that a name gives are not always drawn. The source made the active and inactive calls. No stated cut-off is given here; in the data, active = GI50 up to about 1.1 µM and inactive = higher.
Form entry, call: pick from active, inactive

Assay result, entry CNC1C(OC2C(OC3C(O)C(O)C(O)C(O)C3O)OC(C)C2(O)CO)OC(CO)C(O)C1O.N=C(N)N.NC(=O)O (stereo not drawn) — outcome?
inactive

Recorded call for CC[C@@]1(O)C(=O)OCc2c1cc1n(c2=O)Cc2cc3c(CN(C)C)c(O)ccc3nc2-1 [TOPOTECAN HYDROCHLORIDE] ?
active

What did the test return for COC(=O)c1ccc2c(c1)CC1(C2)Cc2ccccc2C1=O (stereo not drawn) ?
inactive

Per the assay record, what outcome was assigned to CC(=O)Oc1cc2c[n+](C)c3c4cc(OC(C)=O)c(OC(C)=O)cc4ccc3c2cc1OC(C)=O ?
inactive

Outcome logged for CC1(C)Cc2nc3c(cc2C(=O)C1/C=N/C(C#N)=C(\N)C#N)C(=O)C(/C=N/C(C#N)=C(\N)C#N)C(C)(C)C3 (stereo not drawn) in this assay:
inactive

What call does the record list for CN(C)CC1CCCCCCCCCC(CN(C)C)C1=O (stereo not drawn) ?
inactive

Record lookup: outcome of this test for Cc1cc(Nc2ccc(S(=O)(=O)O)c3cc(S(=O)(=O)O)cc(S(=O)(=O)O)c23)c2ccccc2n1 ?
inactive

I'd appreciate the recorded outcome for COC(=O)c1ccc(NCC2=CC(=O)C=CC2=O)cc1O from this test.
inactive

Dear all, I need the recorded test outcome for NNc1[nH]c(=S)[nH]c1C(N)=O , thank you.
inactive

Assay outcome for C/C(=N\Nc1ccc2ccccc2n1)c1ccccc1O : what was it?
inactive

Name the outcome recorded for CC1(C)CN=C(c2ccc3ccccc3c2O)N1 in the assay.
inactive

Recorded call for Cc1nn(C(=O)Cc2ccccc2)c2c1C(c1ccccc1O)SC(=N)N2 (stereo not drawn) ?
inactive

What did the test return for O=C(O)Cc1cccc2c(=O)cc(-c3ccccc3)oc12 ?
inactive

Name the outcome recorded for N#C[BH2-][n+]1cn(C2CC(OP(=O)(O)OCC3OC(n4ccc(N)nc4=O)CC3O)C(CO)O2)c2nc(N)[nH]c(=O)c21 (stereo not drawn) in the assay.
inactive

What classification did COc1cc(CNC(=O)CCCCCCCC/C=C/Br)ccc1O end up with in this test?
inactive

Write down the call the test reported for this compound. Item: Cc1cc(O)c2c(c1)C(=O)C=C(Br)C2=O
inactive

Hey, what did the test say about O=c1c2ncn(C3CCCO3)c2n(-c2ccccc2)c(=S)n1-c1ccccc1 (stereo not drawn) ?
inactive

I would be grateful if you could indicate the recorded call for CCOC(=O)CO/N=C1/C(=C2/C(=O)Nc3ccccc32)Nc2ccccc21 .
inactive

###

- Tested on: HOP-92
- EXPERIMENTAL PROTOCOL: NCI tumour cell line growth inhibition, 48 h
The source made the active and inactive calls. No stated cut-off is given here; in the data, active = GI50 up to about 1.1 µM and inactive = higher.
Field 'call' accepts active, inactive

Called result for CNc1ccc(C(=O)CC(O)CCC(C)C2OC(=O)CC(O)CC(=O)CC(O)CC(O)CC(O)CC(O)CC3(O)CC(O)C(C(=O)NCCN4CCOCC4)C(CC(OC4OC(C)C(O)C(N)C4O)\C=C/C=C\C=C/C=C/C=C/C=C\C=C/C2C)O3)cc1 (stereo not drawn)
inactive

Identify the outcome logged in this assay for the compound shown: O=C(c1ccccc1)c1c(CC(O)c2ccncc2)n(C(=O)c2ccccc2)c2ccccc12 (stereo not drawn)
inactive

Call for entry Cc1cn(C2CC(O)C(Cn3nncc3Cn3cnc4c(N)ncnc43)O2)c(=O)[nH]c1=O (stereo not drawn) :
inactive

What call does the record list for O=[N+]([O-])c1ccc2c(c1)=[N+]([O-])C1(CCCCC1)[N+]=2[O-] ?
inactive

What did the test return for O=c1/c(=C/c2ccc(-c3ccc(Cl)cc3Cl)o2)sc2n1[C@@H](c1ccc3c(c1)OCO3)C=C(c1cc(F)c(Cl)cc1Cl)N=2 ?
inactive

Dear all, I need the recorded test outcome for COC(=O)c1ccc(NCC2=CC(=O)C=CC2=O)cc1O , thank you.
inactive

# outcome recorded in this test, key = COC(=O)/C=C\C(C#N)(C#N)/N=C/c1cc(Br)cs1
inactive

Answer briefly: the call reported for Cc1cc2c(c3oc(C4(C)OC4C4OC4C)cc(=O)c13)C(=O)c1c(O)c(C3CC(C)(N(C)C)C(O)C(C)O3)cc(C3CC(N(C)C)C(O)C(C)O3)c1C2=O (stereo not drawn) in this assay.
active

Please indicate how the test categorized COc1ccc2c(c1)/C(=C\c1c(Cl)nc3n1CCS3)C(=O)N2 .
inactive

# outcome recorded in this test, key = NC(=O)NO [HYDROXYUREA]
inactive

For COC1CC(O[C@H]2CC[C@@]3(C)[C@@H](CC[C@]4(O)[C@@H]3CC[C@]3(C)[C@@H](C(C)=O)[C@H](OC(=O)CC(C)C)[C@@H](OC(=O)c5ccccc5)[C@@]34O)C2)OC(C)C1OC1CC(OC)C(OC2OC(C)C(O)C(OC)C2O)C(C)O1 (stereo partly drawn) , what call appears in the results of this test?
inactive

Lab log entry: COc1ccc2[nH]c3c([N+](=O)[O-])ccc(NCCN(C)C)c3/c(=N/CCN(C)C)c2c1 — outcome as called in the assay?
inactive

Look up the recorded call for CCOC1Oc2ccccc2-c2nc(SC)ncc21 (stereo not drawn) in this test.
inactive

How was CCOC(=O)/C=C/CCO[Si](C)(C)C(C)(C)C classified in this test?
inactive

Any idea what this test logged for COc1ccc(C(c2ccccc2)(c2ccc(OC)cc2)N2C(=O)NC3C(CCCCC(=O)NCCCCCCOP(OCCC#N)N(C(C)C)C(C)C)SCC32)cc1 (stereo not drawn) ?
inactive

Kindly provide the recorded test outcome for the following compound: C#CCNC(=O)NCCCCC(NC(=O)OCc1ccccc1)C(=O)OCc1ccccc1 (stereo not drawn)
inactive

// return assay outcome for CN1CCCS/C1=C1/SC(=S)N(c2ccccc2)C1=O
inactive

Short answer needed: outcome of this test for COc1cc(C(c2cc(OC)c(OC)c(OC)c2)N2C(=O)CCC2C(=O)O)cc(OC)c1OC (stereo not drawn) ?
inactive

How did this test come out for COC(=O)c1ccc(/C=C/c2cc(O)ccc2O)cc1 ?
inactive

How was C=CC(=O)C#Cc1cnc(OC)nc1OC classified in this test?
inactive

Any idea what this test logged for C=C1C=CC2(Br)OC3CC(C)(Cl)C(Br)CC13C2(C)C (stereo not drawn) ?
inactive

Which outcome was entered for the compound O=C(O)CCc1nc2c(n1Cc1ccccc1)C(=O)c1ccccc1C2=O in this test?
inactive

# outcome recorded in this test, key = O=C(N/N=C\c1ccc([N+](=O)[O-])cc1)Nc1ccccc1
inactive

What call does the record list for COc1ccc2c(c1)C(=O)C(=O)c1cc(O)c(OC)c(OC)c1-2 ?
active

Record request — test call for CNC1C(OC2C(OC3C(O)C(O)C(O)C(O)C3O)OC(C)C2(O)CO)OC(CO)C(O)C1O.N=C(N)N.NC(=O)O (stereo not drawn)
inactive

# outcome recorded in this test, key = Oc1ccc2c(O)cc(-c3ccccc3)nc2c1
inactive

// param item: Cc1cc(O)c2c(c1)C(=O)C=C(Br)C2=O ; yields the recorded call
inactive

Recorded test call requested for c1ccc(/N=C(/Nc2ccccc2)N2CCCCC2)cc1
inactive

# outcome recorded in this test, key = C[C@]12CC[C@H]3[C@@H](CCC4=CC(=O)CC[C@@H]43)[C@@H]1CC[C@]2(O)C(N)=O
inactive

Tell me the recorded outcome of this test for COC(=O)/C=C(C)/C=C/c1c(C)c(C(C)=O)c(C)n1C .
inactive

For NC(=S)N/N=C1\CCCCC1C(O)(C(F)(F)Cl)C(F)(F)Cl (stereo not drawn) , which call appears in the assay record?
inactive

Tell me the assay call for O=C(c1ccccc1)C(c1ccccc1)C1(O)C(=O)Nc2ccc([N+](=O)[O-])cc21 (stereo not drawn) please.
inactive

Per the assay record, what outcome was assigned to O=C(CCc1nnc(S)[nH]1)Nc1cc(Cl)c(Cl)cc1Cl ?
inactive

// return assay outcome for CN1c2ccccc2S(=O)(=O)n2c(COc3ccccc3)nnc21
inactive

Outcome logged for Cc1ccc(C(c2c(O)c3ccccc3n(-c3ccccc3)c2=O)c2c(O)c3ccccc3n(-c3ccccc3)c2=O)cc1 in this assay:
inactive

Can you look up the reported call for [O-]/[N+](=C\c1ccccc1OC(=S)S)c1ccc(Cl)cc1 for me?
inactive

Kindly provide the recorded test outcome for the following compound: COc1ccc(Cc2cc(Cc3ccc(OC)cc3)cc(Cc3ccc(OC)cc3)c2)cc1
inactive

Which result was noted for this compound in the test: N/C(=N\Nc1ccc(S(N)(=O)=O)cc1)c1cnccn1
inactive
